- study.system: PICK1, Q9NRD5
- Sequence (Q9NRD5 17-115): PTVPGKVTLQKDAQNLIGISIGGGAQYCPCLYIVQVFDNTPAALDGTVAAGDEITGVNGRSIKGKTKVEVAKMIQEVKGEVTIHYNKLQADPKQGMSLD
- procedure.summary: holdup assay
- Set-up: key: below the threshold = too weak to quantify, mostly under pKd 3.1 to 4
- experimental.conditions: plain residues with an end cap or a label only (N-terminal biotin on a linker: ado-ado)
measured.quantity: pKd

binder	pKd
FVHPILQSAV [PRKCA, P17252]	below the threshold
GFGEERESIL [KIDINS220, Q9ULH0]	4.14
EEPEERHTEL [CES2, O00748]	below the threshold
QKNKDKEYYV [NRXN3_rs746444206, Q9Y4C0]	below the threshold
EDLTKNHDEL [RCN1, Q15293]	below the threshold

Inquiry: Looking for the measured pKd of TETASVCTKV [SLC23A1, Q9UHI7] , can you help?
Reply text: 4.24
